molecular target: Adrenergic receptor beta (Rattus norvegicus, UniProt P18090+P10608+P26255); assay: Inhibition of [3H]dihydroalprenolol binding to Beta adrenergic receptor from rat cerebral cortical membranes; format: cell membranes, Membrane

{"compound": "COc1ccc(CC2NCCc3cc(OC)c(O)cc32)cc1O (stereo unspecified)", "experimentalSystem": "Adrenergic receptor beta (Rattus norvegicus, UniProt P18090+P10608+P26255)", "unitAbbreviation": "µM", "relationalOperator": "=", "Ki": 4}
{"compound": "COc1ccc(C[C@@H]2NCCc3cc(OC)c(O)cc32)cc1O", "experimentalSystem": "Adrenergic receptor beta (Rattus norvegicus, UniProt P18090+P10608+P26255)", "unitAbbreviation": "µM", "relationalOperator": "=", "Ki": 1.3}
{"compound": "COc1ccc(CC2NCCc3cc(OC)c(OC)cc32)cc1OC (stereo unspecified) [TETRAHYDROPAPAVERINE]", "experimentalSystem": "Adrenergic receptor beta (Rattus norvegicus, UniProt P18090+P10608+P26255)", "unitAbbreviation": "µM", "relationalOperator": "=", "Ki": 1}
{"compound": "O=C(O)C1(Cc2ccc(O)c(O)c2)NCCc2cc(O)c(O)cc21 (stereo unspecified)", "experimentalSystem": "Adrenergic receptor beta (Rattus norvegicus, UniProt P18090+P10608+P26255)", "unitAbbreviation": "µM", "relationalOperator": ">", "Ki": 100}
{"compound": "Oc1ccc(CC2NCCc3cc(O)c(O)cc32)cc1O (stereo unspecified)", "experimentalSystem": "Adrenergic receptor beta (Rattus norvegicus, UniProt P18090+P10608+P26255)", "unitAbbreviation": "µM", "relationalOperator": "=", "Ki": 0.3}
{"compound": "COc1cc(CC2NCCc3cc(O)c(O)cc32)ccc1O (stereo unspecified)", "experimentalSystem": "Adrenergic receptor beta (Rattus norvegicus, UniProt P18090+P10608+P26255)", "unitAbbreviation": "µM", "relationalOperator": "=", "Ki": 0.5}
